Each entry below carries its reported Inhibition percent.
- system.tested: MeCP2-TBL1 interaction (MeCP2-SmBiT / TBL1-LgBiT) (Mus musculus)
- Construct: expressed in transfected cells; crude lysate used as a cell-free assay
- Sequence (Q9QXE7 166-527): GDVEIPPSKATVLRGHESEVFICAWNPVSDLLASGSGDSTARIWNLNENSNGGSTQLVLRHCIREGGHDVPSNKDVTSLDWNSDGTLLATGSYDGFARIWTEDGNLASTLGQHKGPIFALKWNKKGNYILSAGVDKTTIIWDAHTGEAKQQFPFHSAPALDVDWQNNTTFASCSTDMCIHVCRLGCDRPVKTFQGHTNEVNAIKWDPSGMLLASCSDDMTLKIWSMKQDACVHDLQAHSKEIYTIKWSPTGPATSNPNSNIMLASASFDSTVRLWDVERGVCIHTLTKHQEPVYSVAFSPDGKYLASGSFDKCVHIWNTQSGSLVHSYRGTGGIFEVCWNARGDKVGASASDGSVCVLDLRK
- test.summary: MeCP2-TBL1 NanoLuc luciferase complementation assay (cell-free, extracts of transfected HEK293 cells);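 further: each compound tested at 20 µM final concentration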
- Assay type: binding, human
- stated.conditions: primary screen of the Asinex library, sheet "Sargen output Asinex library", one well per compound
All answers are understood in %, so give the number only.

Observe how each entry below is paired with its result.
CC(=O)N[C@@]12CN(C)CC[C@@H]1[C@@H](c1ccccc1)N(CC(=O)Nc1ccc3c(c1)OCCO3)C2 [BDH_33617398] ... -1.20
O=C(CC1CCN(C(=O)C2(c3ccc(F)cc3)CCCC2)CC1)Nc1ccc2nccnc2c1 [BDH_32356175] ... 0.45
Cc1nccn1Cc1ccccc1C(=O)N1CCCC(Cc2cccc3cccnc23)CC1 (centres unmarked) [BDH_32339298] ... 3.41
CNC(=O)c1cc(C)nc(C2(C)CCN(C(=O)c3ccc(C)c(NCc4ccccn4)c3)CC2)n1 [BDH_32371078] ... 4.95
CC(C)C[C@H](NC(=O)OCc1ccccc1)C(=O)N1CCC2(CC1)CO[C@@H]([C@@]1(C)CC[C@H](O)C(C)(C)O1)C2 [BDH_33767587] ... -2.43
Cn1cc(C(=O)Nc2cccc(C(=O)N3CCCC(Cc4ccnc5ccccc45)CC3)c2)cn1 (centres unmarked) [BDH_32361062] ... -0.32
CC(=O)N1CCc2nc(C3CCCN(C)C3)nc(NCCCc3ccccc3Cl)c2C1 (centres unmarked) [BDE_25356631] ... 2.24

// moving on: another record for Inhibition percent
## Input # lookup: Inhibition percent of O=C1CCCN1CCOc1ccccc1C(=O)N1CCCC(Cc2cn3ccnc3cn2)CC1 (centres unmarked) [BDH_32372856]
## Output -2.49

This collection of values is drawn from paper PMC9995496.
